// provenance: patent US9757378B2

# Test system: primary human AML cells
# Test Description: Primary screen: differentiation of primary human AML cells in vitro (CD34/CD15, HTS flow cytometry)
# Particulars: compared to DMSO
Reported % increase CD34+CD15− (cell counts) values for a set of compounds
Reply with just the number (in %).

- Compound: "CC(C)Oc1ccc2c(=O)c(-c3ccccc3)coc2c1"
  Units: "%"
  % increase CD34+CD15− (cell counts): 54.50

# compound `CC[C@H](C)C(=O)O[C@H]1C[C@@H](C)C=C2C=C[C@H](C)[C@H](CC[C@@H]3C[C@@H](O)CC(=O)O3)[C@H]21` ; its % increase CD34+CD15− (cell counts) = 36.94

# compound `O=c1cc(-c2ccc(O)c(O)c2)oc2cc(O)cc(O)c12` ; its % increase CD34+CD15− (cell counts) = 27.50

# compound N[C@@H]1C[C@H]1c1ccccc1.N[C@H]1C[C@@H]1c1ccccc1.O=S(=O)(O)O [UM0121497, Tranylcypromine sulfate] ; its % increase CD34+CD15− (cell counts) = 19.65

# compound `OC[C@@H]1CCCN2CCCC[C@H]12` ; its % increase CD34+CD15− (cell counts) = 51.77

# compound `CCOC(=O)c1oc2c(OC)c(O)cc(O)c2c(=O)c1-c1cc(OC)c(OC)c(OC)c1` ; its % increase CD34+CD15− (cell counts) = 50.24

# compound NC(=Nc1ccccc1)NC(=O)c1nc(Cl)c(N)nc1N [UM0120143, Phenamil methanesulfonate] ; its % increase CD34+CD15− (cell counts) = 54.83

# compound `COc1c(-c2ccccc2)oc2c(OC)cccc2c1=O` ; its % increase CD34+CD15− (cell counts) = 53.85

# compound `O=c1c(O)c(-c2ccccc2)oc2cc(O)cc(O)c12` ; its % increase CD34+CD15− (cell counts) = 23.06

# compound `COc1ccc(-c2coc3c(O)c(OC)ccc3c2=O)cc1` ; its % increase CD34+CD15− (cell counts) = 125.38

# compound `C[C@]12CCC(=O)C=C1CC[C@@H]1[C@@H]2CC[C@]2(C)C(=O)CC[C@@H]12` ; its % increase CD34+CD15− (cell counts) = 20.14

# compound `Oc1ccc(C=Cc2cc(O)cc(O)c2)cc1` ; its % increase CD34+CD15− (cell counts) = 12.57

# compound `O=c1cc(-c2ccc(O)cc2)oc2cc(O)cc(O)c12` ; its % increase CD34+CD15− (cell counts) = 66.30

# compound `COc1cc2c(cc1O)C[C@H]1c3c(cc(O)c(OC)c3-2)CCN1C` ; its % increase CD34+CD15− (cell counts) = 50.97

# compound `CO[C@@H]1[C@H](OC(=O)/C=C/C=C/C=C/C=C/C(=O)O)CC[C@]2(CO2)[C@H]1[C@@]1(C)O[C@@H]1CC=C(C)C` ; its % increase CD34+CD15− (cell counts) = −46.09

# compound `COc1cc(OC)c2c(=O)cc(-c3ccccc3)oc2c1` ; its % increase CD34+CD15− (cell counts) = 53.11

# compound `COc1cccc2oc(-c3ccccc3)cc(=O)c12` ; its % increase CD34+CD15− (cell counts) = 61.47

====

# Test system: primary human AML cells
# Test Description: Primary screen: differentiation of primary human AML cells in vitro (CD34/CD15, HTS flow cytometry)
# Particulars: compared to DMSO
Observable: % increase CD34+CD15− (cell counts) (%)
Reply with just the number (in %).

- Compound: "CCOC(=O)c1c(C)cc(O)c(C)c1O"
  % increase CD34+CD15− (cell counts) / %: 52.88
- Compound: "CC(=O)Oc1ccc(-c2cc(=O)c3c(OC(C)=O)cc(OC(C)=O)cc3o2)cc1 [UM0121171, Apigenin triacetate]"
  % increase CD34+CD15− (cell counts) / %: 31.61
- Compound: "CNC(=O)c1cc2c(cn1)[nH]c1ccccc12 [UM0119840, N-Methyl-beta-carboline-3-carboxamide]"
  % increase CD34+CD15− (cell counts) / %: 85.11

# compound `COc1cc(OC)c2c(=O)c(-c3ccc4c(c3)OCO4)coc2c1` ; its % increase CD34+CD15− (cell counts) = 58.63

# compound `C[C@@H]1Cc2c(Cl)cc(C(=O)N[C@@H](Cc3ccccc3)C(=O)O)c(O)c2C(=O)O1` ; its % increase CD34+CD15− (cell counts) = 34.37
